Each recorded value in this set is attributed to ChEMBL document CHEMBL5390247.

- Test system: HT-29
- experimentalProtocol: Immunomodulatory activity in human HT-29 cells co-cultured with interferon gamma-stimulated THP-1 cells assessed as induction of morphological changes by measuring cell shrinkage at 100 uM incubated for 48 hrs
- Type: functional, cell-based
Calls of active or inactive are those of the source. No cut-off for these calls is given here.
observable: Activity

compound	Activity
COc1ccc(Cn2nnc(-c3cccc([N+](=O)[O-])c3)n2)cc1	Active
COc1ccccc1Cn1nnc(-c2cccc([N+](=O)[O-])c2)n1	Active
COc1cccc(Cn2nnc(-c3cccc(N)c3)n2)c1	Active
COc1cccc(Cn2nnc(-c3cccc([N+](=O)[O-])c3)n2)c1	Active
COc1ccccc1Cn1nnc(-c2cccc(N)c2)n1	Active

Give me Activity for each of these compounds, listed below.
1. COc1ccc(Cn2nnc(-c3cccc(N)c3)n2)cc1
2. Nc1cccc(-c2cn(Cc3ccc(Cl)cc3)nn2)c1
3. Nc1cccc(-c2cn(Cc3ccc(Br)cc3)nn2)c1

OUT:
Active
Active
Active

---

- Tested on: HT-29
- experimentalProtocol: Antiproliferative activity against human HT-29 cells assessed as relative c-Myc protein expression at 100 uM incubated for 48 hrs by flow cytometry analysis relative to control
- Type: functional
observable: Activity (%)
Answers are plain numbers, in %.

Examples with answers:
compound	assayedSystem	Activity / %
O=[N+]([O-])c1cccc(-c2nnn(Cc3ccccc3)n2)c1	HT-29	82
Nc1cccc(-c2nnn(Cc3ccccc3Br)n2)c1	HT-29	90
COc1ccc(Cn2nnc(-c3cccc(N)c3)n2)cc1	HT-29	75
COc1ccccc1Cn1nnc(-c2cccc(N)c2)n1	HT-29	97
COc1cccc(Cn2nnc(-c3cccc([N+](=O)[O-])c3)n2)c1	HT-29	75
Nc1cccc(-c2nnn(Cc3cccc(Cl)c3)n2)c1	HT-29	76
O=[N+]([O-])c1cccc(-c2nnn(Cc3ccccc3Cl)n2)c1	HT-29	86
Cc1cccc(Cn2nnc(-c3cccc([N+](=O)[O-])c3)n2)c1	HT-29	89

Each of the following entries comes with a recorded value; kindly state Activity for each.
1. Nc1cccc(-c2nnn(Cc3ccc(Br)cc3)n2)c1
2. Nc1cccc(-c2nnn(Cc3cccc(Br)c3)n2)c1
3. O=[N+]([O-])c1cccc(-c2nnn(Cc3cccc(Br)c3)n2)c1

OUT:
[76, 83, 76]

---

- Tested on: HT-29
- experimentalProtocol: Antiproliferative activity against human HT-29 cells assessed as relative c-Myc protein expression at 100 uM incubated for 48 hrs by flow cytometry analysis relative to control
- Type: functional
Give Activity for every item shown.

compound	result
COc1ccccc1Cn1nnc(-c2cccc([N+](=O)[O-])c2)n1	86%

Please go through the list and note Activity for each compound.
1. O=[N+]([O-])c1cccc(-c2nnn(Cc3ccc(Br)cc3)n2)c1
2. COc1ccc(Cn2nnc(-c3cccc([N+](=O)[O-])c3)n2)cc1

OUT:
["72%", ">100%"]

---

- Tested on: HT-29
- experimentalProtocol: Antiproliferative activity against human HT-29 cells assessed as reduction in cell viability incubated for 48 hrs by MTT assay
- Assay type: functional, cell-based
- measurementConditions: HT-29, 48 h
observable: IC50

These solved cases illustrate the format of a correct answer.
compound	result
O=[N+]([O-])c1cccc(-c2nnn(Cc3ccc(Cl)cc3)n2)c1	> 100 µM
O=[N+]([O-])c1cccc(-c2nnn(Cc3ccc(Br)cc3)n2)c1	> 100 µM

Next, consider the following compound.
IN: For the compound shown here, Nc1cccc(-c2nnn(Cc3ccc(Br)cc3)n2)c1 , give the reported IC50.
OUT: > 100 µM

---

- System: HT-29
- experimentalProtocol: Antiproliferative activity against human HT-29 cells assessed as relative c-Myc protein expression at 100 uM incubated for 48 hrs by flow cytometry analysis relative to control
- Assay type: functional
observable: Activity (%)
Numbers only, in %.

compound	observable	recordedNumber
O=[N+]([O-])c1cccc(-c2nnn(Cc3ccc(Cl)cc3)n2)c1	Activity	90
COc1cccc(Cn2nnc(-c3cccc(N)c3)n2)c1	Activity	86
Nc1cccc(-c2nnn(Cc3ccc(Cl)cc3)n2)c1	Activity	80

# batch: return Activity for each of the 3 compounds below
1. Cc1ccc(Cn2nnc(-c3cccc([N+](=O)[O-])c3)n2)cc1
2. Cc1ccccc1Cn1nnc(-c2cccc([N+](=O)[O-])c2)n1
3. O=[N+]([O-])c1cccc(-c2nnn(Cc3ccccc3Br)n2)c1

OUT:
1: 78; 2: 91; 3: 90
